molecular target: T1, recombinant human VISTA (His-tagged) (human, UniProt Q9H7M9 33-194); test: ELISA, plate coated with human VISTA; unit nM from the legend paragraph 697
T1 construct: bought soluble protein (Sino Biological); also called hVISTA; human VISTA polypeptide
Entries annotated with measured pEC50
Remember the convention: pEC50 equals -log10 of concentration in molar.

Qu. Please indicate pEC50 recorded for anti-VISTA clone V4-C24 IgG1 (antibody, V domains shown) VH: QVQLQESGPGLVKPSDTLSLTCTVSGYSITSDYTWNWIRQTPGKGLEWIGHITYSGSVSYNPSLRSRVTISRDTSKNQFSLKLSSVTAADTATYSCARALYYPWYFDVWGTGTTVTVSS VL: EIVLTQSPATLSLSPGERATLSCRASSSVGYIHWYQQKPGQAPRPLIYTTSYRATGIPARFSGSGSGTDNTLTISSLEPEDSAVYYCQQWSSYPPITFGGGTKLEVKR
Ans. 11.00

Continue with the binder presented below.
Qu. Consider the binder anti-VISTA clone V4-C9 IgG1 (antibody, V domains shown) VH: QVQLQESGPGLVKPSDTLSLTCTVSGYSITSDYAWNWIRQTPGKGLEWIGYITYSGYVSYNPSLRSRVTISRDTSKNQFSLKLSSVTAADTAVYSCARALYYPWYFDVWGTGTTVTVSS VL: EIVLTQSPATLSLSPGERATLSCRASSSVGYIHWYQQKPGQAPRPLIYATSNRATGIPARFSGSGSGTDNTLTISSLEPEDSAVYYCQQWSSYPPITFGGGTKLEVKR and give its recorded pEC50.
Ans. 10.51
